B1: library; numbered along this chain (parent)
chain: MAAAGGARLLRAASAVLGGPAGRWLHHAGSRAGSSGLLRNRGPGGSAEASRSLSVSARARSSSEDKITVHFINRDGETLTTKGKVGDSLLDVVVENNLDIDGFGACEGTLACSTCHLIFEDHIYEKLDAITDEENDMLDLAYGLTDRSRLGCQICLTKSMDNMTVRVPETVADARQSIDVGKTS

variants of: B1; assay: scaled log2 fold change in cell abundance, elesclomol vs control (0 = silent mean, 1 = nonsense mean) (scaled log2 ratio); higher = higher viability under elesclomol (loss of FDX1 cuproptosis function); details: with ABC1 FDX1 KO; elesclomol 5 nM; glucose 10 mM; 14 days;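 further: variant abundance is its share of total variant reads in each endpoint sample, from next-generation sequencing of the integrated ORF PCR-amplified out of genomic DNA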
Rule: scaled log2 fold change of 0.2 or more gives 1; anything lower gives 0.

Exercise: Determine whether this variant has scaled log2 fold change no lower than 0.2: "S14E"
Key: 1

Exercise: Quick check, scaled log2 fold change >= 0.2? "N40Y"
Key: 0
